Target: T1, mouse MAdCAM expressed on cells (mouse, UniProt Q61826 22-405)
T1 construct: whole, on cells
T1 sequence (looked up): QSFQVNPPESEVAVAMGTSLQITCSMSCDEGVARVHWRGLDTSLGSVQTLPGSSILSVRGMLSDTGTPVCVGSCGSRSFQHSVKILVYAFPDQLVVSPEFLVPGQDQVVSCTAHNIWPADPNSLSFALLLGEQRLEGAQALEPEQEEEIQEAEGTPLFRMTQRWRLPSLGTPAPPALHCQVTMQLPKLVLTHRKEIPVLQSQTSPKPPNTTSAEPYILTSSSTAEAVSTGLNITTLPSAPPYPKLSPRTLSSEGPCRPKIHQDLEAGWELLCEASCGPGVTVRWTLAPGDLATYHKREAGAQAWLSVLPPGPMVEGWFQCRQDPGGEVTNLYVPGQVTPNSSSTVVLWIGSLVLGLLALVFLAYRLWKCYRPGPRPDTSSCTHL
Assay: cell binding
reported.endpoint: binding result

MAdCAM antibody Clone ID 28 of Table 6 (scFv) (scFv) scFv: QVQLVQSGAEVKKPGASVKVSCKASGYTFTDYFLHWVRQAPGQGLEWMGWMNPTSGNTGYAQKFQGRVTMTRDTSTSTVYMELSSLRSEDTAVYYCAREGEGSGFDYWGQGTLVTVSSGGGGSGGGGSGGGGSGGGGSDIQMTQSPSSLSASVGDRVTITCRASQGINSWLAWYQQKPGKAPKLLIYDASNLETGVPSRFSGSGSGTDFTLTISSLQPEDFATYYCQQSYSTPLTFGGGTKVEIK : no binding
MAdCAM antibody Clone ID 11 of Table 6 (scFv) (scFv) scFv: QVQLVQSGAEVKKPGASVKVSCKASGYTFTTYYMHWVRQAPGQGLEWMGGFDPEDGETIYAQKFQGRVTMTRDTSTSTVYMELSSLRSEDTAVYYCARHAVAGAVGAGYYYYGMDVWGQGTMVTVSSGGGGSGGGGSGGGGSGGGGSDIQMTQSPSSLSASVGDRVTITCRASESISNWLAWYQQKPGKAPKLLIYAASTLQSGVPSRFSGSGSGTDFTLTISSLQPEDFATYYCQQSYSVPFTFGPGTKVDIK : no binding
MAdCAM antibody Clone ID 32 of Table 6 (scFv) (scFv) scFv: QVQLVQSGAEVKKPGASVKVSCKASGYTLTDYYMHWVRQAPGQGLEWMGIINPSGGSTSYAQKFQGRVTMTRDTSTSTVYMELSSLRSEDTAVYYCAREEYSSSSGYFDYWGQGTLVTVSSGGGGSGGGGSGGGGSGGGGSDIQMTQSPSSLSASVGDRVTITCRASQGISSWLAWYQQKPGKAPKLLIYAASSLQSGVPSRFSGSGSGTDFTLTISSLQPEDFATYYCQQSYSTPLTFGQGTKVEIK : no binding
MAdCAM antibody Clone ID 7 of Table 6 (scFv) (scFv) scFv: QVQLVQSGAEVKKPGASVKVSCKASGYTFTGYHIHWVRQAPGQGLEWMGIINPSGGSTIYAQKFQGRVTMTRDTSTSTVYMELSSLRSEDTAVYYCAKDWSSWYLGPFDYWGQGTLVTVSSGGGGSGGGGSGGGGSGGGGSDIQMTQSPSSLSASVGDRVTITCRASQNISSSLNWYQQKPGKAPKLLIYAASSLQSGVPSRFSGSGSGTDFTLTISSLQPEDFATYYCQQSYTTPYTFGQGTKVEIK : binds
MAdCAM antibody Clone ID 49 of Table 6 (scFv) (scFv) scFv: QVQLVQSGAEVKKPGASVKVSCKASGDTFTGYYIHWVRQAPGQGLEWMGWINPNSGGTNYAQKFQGRVTMTRDTSTSTVYMELSSLRSEDTAVYYCARSGLWLGSYYGMDVWGQGTLVTVSSGGGGSGGGGSGGGGSGGGGSDIQMTQSPSSLSASVGDRVTITCRASQTISIWLAWYQQKPGKAPKLLIYDASTLQSGVPSRFSGSGSGTDFTLTISSLQPEDFATYYCQQYSSYPLTFGQGTKVEIK : no binding
